- measurement.protocol: Antagonist activity at PAR4 in human platelet rich plasma assessed as inhibition of gamma-thrombin-induced platelet aggregation preincubated for 5 mins followed by gamma-thrombin addition and measured in presence of recombinant hirudin
pIC50: −log10 of the molar value.
reported.property: pIC50

- COc1ccc2cc(-c3cn4nc(OC)sc4n3)oc2c1 [US9862730, Example 71]: 6.32
- COc1cc(OCc2cccc(O)c2)c2cc(-c3cn4nc(OC)sc4n3)oc2c1: 5.57
- COc1cc(OCc2cccc(Sc3ccccc3)c2)c2cc(-c3cn4nc(OC)sc4n3)oc2c1: 6.39
- COc1cc(OC)c2cc(-c3cn4nc(OC)sc4n3)oc2c1 [US9862730, Example 73]: 6.28
- COc1cc(OCc2ccc(C(F)(F)F)cc2)c2cc(-c3cn4nc(OC)sc4n3)oc2c1: 5.74

====

- measurement.protocol: Antagonist activity at PAR4 in human washed platelets assessed as inhibition of gamma-thrombin-induced platelet aggregation preincubated for 5 mins followed by gamma-thrombin addition and measured every 50 secs for up to 15 mins starting from 10 secs post gamma-thrombin addition in presence of recombinant hirudin
pIC50: −log10 of the molar value.
reported.property: pIC50

* COc1nn2cc(-c3cc4c(OCc5ccccc5)cccc4o3)nc2s1 [US9862730, Example 210] | 5.51
* COc1cc(OC)c2cc(-c3cn4nc(OC)sc4n3)oc2c1 [US9862730, Example 73] | 7.13
* COc1ccc2cc(-c3cn4nc(OC)sc4n3)oc2c1 [US9862730, Example 71] | 6.92
* COc1nn2cc(-c3cc4c(OC)ccc(OC)c4o3)nc2s1 [US9862730, Example 103] | 5.68
* CCc1nn2cc(-c3cc4ccccc4o3)nc2s1 [US9862730, Example 47] | 5.62
* CSc1nn2cc(-c3cc4ccccc4o3)nc2s1 [US9862730, Example 1] | 6.57
* COc1nn2cc(-c3cc4ccccc4o3)nc2s1 | 6.62
* COc1nn2cc(-c3cc4cccc(OC)c4o3)nc2s1 [US9862730, Example 9] | 6.62
* CCOc1nn2cc(-c3cc4ccccc4o3)nc2s1 | 5.68
* COc1nn2cc(-c3cc4c(OC)cccc4o3)nc2s1 [US9862730, Example 11] | 6.46
* COc1nn2cc(-c3cc4ccc(OCc5ccccc5)cc4o3)nc2s1 [US9862730, Example 104] | 5.74

====

- measurement.protocol: Antagonist activity at PAR4 in human platelet rich plasma assessed as inhibition of gamma-thrombin-induced platelet aggregation preincubated for 5 mins followed by gamma-thrombin addition and measured in presence of recombinant hirudin
pIC50: −log10 of the molar value.
reported.property: pIC50

* COc1nn2cc(-c3cc4ccccc4o3)nc2s1 | 4.82
* COc1cc(OCc2cccc(C(F)(F)F)c2)c2cc(-c3cn4nc(OC)sc4n3)oc2c1 | 6.36
* COc1nn2cc(-c3cc4c(OC)cccc4o3)nc2s1 [US9862730, Example 11] | 5.89
* COc1cc(OCc2ccccc2OCc2ccccc2)c2cc(-c3cn4nc(OC)sc4n3)oc2c1 | 5.60
* COc1cc(OCc2ccc(OCc3ccccc3)cc2)c2cc(-c3cn4nc(OC)sc4n3)oc2c1 | 6.26
* COc1cc(OCc2cccc(COc3ccccc3)c2)c2cc(-c3cn4nc(OC)sc4n3)oc2c1 | 6.22
* COc1cc(OCc2cccc(Cl)c2)c2cc(-c3cn4nc(OC)sc4n3)oc2c1 | 6.17
* COc1cc(OCCOc2ccccc2)c2cc(-c3cn4nc(OC)sc4n3)oc2c1 | 6.32
* COc1nn2cc(-c3cc4cccc(OC)c4o3)nc2s1 [US9862730, Example 9] | 5.46
* COc1cc(OCc2cccc(C#N)c2)c2cc(-c3cn4nc(OC)sc4n3)oc2c1 | 6.09
* COc1nn2cc(-c3cc4c(OCc5ccccc5)cccc4o3)nc2s1 [US9862730, Example 210] | 5.39
* COc1cc(OCCc2ccccc2)c2cc(-c3cn4nc(OC)sc4n3)oc2c1 | 6.11
* COc1cc(OCc2ccccc2C)c2cc(-c3cn4nc(OC)sc4n3)oc2c1 | 5.44
* COc1cc(OCCOCc2ccccc2)c2cc(-c3cn4nc(OC)sc4n3)oc2c1 | 6.30
* COc1nn2cc(-c3cc4c(OC)ccc(OC)c4o3)nc2s1 [US9862730, Example 103] | 5.00
* COc1cc(OCc2cccc(CCc3ccccc3)c2)c2cc(-c3cn4nc(OC)sc4n3)oc2c1 | 5.92

====

- measurement.protocol: Antagonist activity at PAR4 in human platelet rich plasma assessed as inhibition of gamma-thrombin-induced platelet aggregation preincubated for 5 mins followed by gamma-thrombin addition and measured in presence of recombinant hirudin
pIC50: −log10 of the molar value.
reported.property: pIC50

* COc1cc(OCc2cccc(Oc3ccccc3)c2)c2cc(-c3cn4nc(OC)sc4n3)oc2c1 | 6.41
* COc1cc(OCc2cccc(CO)c2)c2cc(-c3cn4nc(OC)sc4n3)oc2c1 | < 6.00
* COc1cccc(COc2cc(OC)cc3oc(-c4cn5nc(OC)sc5n4)cc23)c1 | < 6.00

====

Measured IC50 of individual entries
- measurement.protocol: Antagonist activity at PAR4 in human platelet rich plasma assessed as inhibition of gamma-thrombin-induced platelet aggregation preincubated for 5 mins followed by gamma-thrombin addition and measured in presence of recombinant hirudin
reported.property: IC50

• COc1nn2cc(-c3cc4ccc(OCc5ccccc5)cc4o3)nc2s1 [US9862730, Example 104] = > 30000 nM
• COc1ccc(COc2cc(OC)cc3oc(-c4cn5nc(OC)sc5n4)cc23)cc1 = > 3000 nM
• COc1cc(OCc2ccccc2OC)c2cc(-c3cn4nc(OC)sc4n3)oc2c1 = > 1000 nM
• COc1cc(OCc2ccccc2Cl)c2cc(-c3cn4nc(OC)sc4n3)oc2c1 = > 3000 nM

====

- measurement.protocol: Antagonist activity at PAR4 in human platelet rich plasma assessed as inhibition of gamma-thrombin-induced platelet aggregation preincubated for 5 mins followed by gamma-thrombin addition and measured in presence of recombinant hirudin
reported.property: IC50

- COc1ccc2oc(-c3cn4nc(OC)sc4n3)cc2c1: > 30 µM
- COc1cc(OCc2ccc(Cl)cc2)c2cc(-c3cn4nc(OC)sc4n3)oc2c1: > 1 µM
- COc1nn2cc(-c3cc4ccc(OC)c(OC)c4o3)nc2s1: > 30 µM
- COc1cc(OCc2ccccc2C(F)(F)F)c2cc(-c3cn4nc(OC)sc4n3)oc2c1: > 1 µM
